System: Runx2
Assay: Runx2 activity, 6xOSE2-Luc luciferase reporter in transfected C2C12 cells
Assay type: cell-based, Mouse
Details: Mus musculus, 20 μM, 24 hrs, read-out: luciferase activity relative to control set as 1
# fold induction at 20 µM per entry
Provide a numeric answer; units are not to be included.

smiles-repr	fold induction at 20 µM
Nc1ccccc1NC(=O)c1ccc(CN2Cc3cc(-c4ccc5c(c4)OCO5)ccc3C2=O)cc1	7.2
Cc1c(C(=O)NCCCCCC(=O)Nc2ccccc2N)cccc1-c1ccccc1	10.7

Identify measured fold induction at 20 µM associated with `Cc1cc(C)cc(-c2ccc(C(=O)NCCCCCC(=O)Nc3ccccc3N)cc2C)c1`
3.9

Identify measured fold induction at 20 µM associated with `COc1cc2c(c(-c3ccc(C(F)(F)F)cc3)c1OC)CN(Cc1ccc(C(=O)Nc3ccccc3N)cc1)C2=O`
9.3

Identify measured fold induction at 20 µM associated with `COc1ccc(-c2cccc(C(=O)NCCCCCC(=O)Nc3ccccc3N)c2C)c(OC)c1`
10.9

Identify measured fold induction at 20 µM associated with `Nc1ccccc1NC(=O)c1ccc(CN2Cc3c(Br)cccc3C2=O)cc1`
9.4

Identify measured fold induction at 20 µM associated with `COc1ccc(-c2cccc(C(=O)NCCCCCC(=O)NO)c2C)c(OC)c1`
11.2

Identify measured fold induction at 20 µM associated with `Nc1ccccc1NC(=O)c1ccc(CN2Cc3cc(-c4ccc5ccccc5c4)ccc3C2=O)cc1`
6.1

Identify measured fold induction at 20 µM associated with `Nc1ccccc1NC(=O)c1ccc(CN2Cc3c(cccc3-c3ccccc3)C2=O)cc1`
16.8

Identify measured fold induction at 20 µM associated with `Nc1ccccc1NC(=O)c1ccc(CN2Cc3c(cccc3-c3ccc(-c4ccccc4)cc3)C2=O)cc1`
19.7

Identify measured fold induction at 20 µM associated with `COc1ccc(-c2ccc3c(c2)CN(Cc2ccc(C(=O)Nc4ccccc4N)cc2)C3=O)cc1OC`
9.5

Identify measured fold induction at 20 µM associated with `Cc1c(C(=O)NCc2ccc(C(=O)Nc3ccccc3N)cc2)cccc1-c1cccnc1`
32.7

Identify measured fold induction at 20 µM associated with `COc1cc(C(=O)NCc2ccc(C(=O)Nc3ccccc3N)cc2)c(C)c(-c2ccccc2)c1OC`
38.9

Identify measured fold induction at 20 µM associated with `Cc1c(C(=O)NCCCCCC(=O)Nc2ccccc2N)cccc1-c1ccncc1`
17.3

Identify measured fold induction at 20 µM associated with `N#Cc1ccc(-c2ccc3c(c2)CN(Cc2ccc(C(=O)Nc4ccccc4N)cc2)C3=O)cc1`
11.4

Identify measured fold induction at 20 µM associated with `COc1cc2c(c(-c3cc(F)cc(F)c3)c1OC)CN(CCCCCC(=O)Nc1ccccc1N)C2=O`
23

Identify measured fold induction at 20 µM associated with `Cc1cc(C)cc(-c2ccc3c(c2)CN(CCCCCC(=O)NO)C3=O)c1`
20.4

###

Tested on: Runx2
Test: Runx2 activity, 6xOSE2-Luc luciferase reporter in transfected C2C12 cells
Assay type: cell-based, Mouse
Conditions: Mus musculus, 20 μM, 24 hrs, read-out: luciferase activity relative to control set as 1
value-type: fold induction at 20 µM
Provide a numeric answer; units are not to be included.

# example entries with known answers
smiles-repr	fold induction at 20 µM
Nc1ccccc1NC(=O)c1ccc(CN2Cc3cc(-c4cc(F)cc(F)c4)ccc3C2=O)cc1	8.6
Nc1ccccc1NC(=O)c1ccc(CN2Cc3c(cccc3-c3ccc(F)cc3)C2=O)cc1	30.4
O=C(CCCCCN1Cc2c(cccc2-c2ccc(C(F)(F)F)cc2)C1=O)NO	1.4
O=C(CCCCCN1Cc2cc(-c3cc(F)cc(F)c3)ccc2C1=O)NO	13.3
COc1ccc(-c2cccc3c2CN(CCCCCC(=O)NO)C3=O)cc1OC	1.6
COc1ccc(-c2ccc3c(c2)CN(CCCCCC(=O)NO)C3=O)c(OC)c1	42.7

Identify measured fold induction at 20 µM associated with `COc1cc(C(=O)NCc2ccc(C(=O)Nc3ccccc3N)cc2)c(C)c(-c2cncnc2)c1OC`
27.8

Identify measured fold induction at 20 µM associated with `CC(C)(C)c1ccc(-c2cccc3c2CN(Cc2ccc(C(=O)Nc4ccccc4N)cc2)C3=O)cc1`
23.7

Identify measured fold induction at 20 µM associated with `COc1cc2c(c(Br)c1OC)CN(Cc1ccc(C(=O)Nc3ccccc3N)cc1)C2=O`
15.8

Identify measured fold induction at 20 µM associated with `Nc1ccccc1NC(=O)CCCCCN1Cc2c(cccc2-c2ccccc2)C1=O`
12.5
